// provenance: patent US20240228482A1

MEASURED TARGET: CBL-B (Homo sapiens, UniProt Q13191)
Construct: GST
Sequence (Q13191 whole entry): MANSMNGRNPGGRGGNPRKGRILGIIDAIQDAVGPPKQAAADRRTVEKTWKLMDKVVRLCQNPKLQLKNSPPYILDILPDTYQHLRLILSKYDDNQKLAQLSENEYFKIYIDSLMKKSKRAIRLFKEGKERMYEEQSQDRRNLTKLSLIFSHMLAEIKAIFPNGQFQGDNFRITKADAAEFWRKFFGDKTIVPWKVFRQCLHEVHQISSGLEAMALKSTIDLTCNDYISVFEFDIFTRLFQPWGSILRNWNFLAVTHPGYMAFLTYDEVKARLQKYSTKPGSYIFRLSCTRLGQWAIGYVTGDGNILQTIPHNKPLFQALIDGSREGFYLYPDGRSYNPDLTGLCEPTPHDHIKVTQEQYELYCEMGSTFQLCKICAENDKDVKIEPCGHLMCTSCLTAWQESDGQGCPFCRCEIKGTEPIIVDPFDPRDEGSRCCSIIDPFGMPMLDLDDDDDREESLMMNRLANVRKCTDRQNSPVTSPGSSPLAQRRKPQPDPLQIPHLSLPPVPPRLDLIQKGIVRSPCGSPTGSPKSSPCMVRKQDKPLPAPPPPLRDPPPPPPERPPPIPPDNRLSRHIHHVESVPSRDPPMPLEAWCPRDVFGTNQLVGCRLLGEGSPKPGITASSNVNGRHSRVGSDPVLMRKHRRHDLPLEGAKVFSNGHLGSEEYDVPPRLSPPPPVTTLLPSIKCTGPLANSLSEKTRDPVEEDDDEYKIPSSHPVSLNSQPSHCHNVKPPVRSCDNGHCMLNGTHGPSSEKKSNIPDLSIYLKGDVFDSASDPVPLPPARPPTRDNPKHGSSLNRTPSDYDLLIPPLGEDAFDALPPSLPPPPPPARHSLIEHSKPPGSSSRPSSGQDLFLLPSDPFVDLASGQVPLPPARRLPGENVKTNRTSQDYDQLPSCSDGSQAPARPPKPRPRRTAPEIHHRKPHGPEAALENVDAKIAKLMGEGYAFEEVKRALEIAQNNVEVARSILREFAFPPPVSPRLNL
PROTOCOL TEXT: CBL-B TR-FRET IC50 screening (E1/E2 ubiquitination, Biotin-Ubiquitin, Anti GST-Tb donor / Streptavidin-d2 acceptor)
Format: biochemical
CONDITION: second part of Table 2 (head 'Patent Cmpd No / Updated Activity'); same CBL-B TR-FRET IC50 bins A-F; read-out: Updated Activity
Reported values of IC50 for individual entries

Take a look at these entries with their results.
MOLECULE	IC50
C[C@@H]1CN(Cc2cc(C(F)(F)F)c3cn(-c4cccc([C@H](CC5CCC5)c5nncn5C)c4)c(=O)n3c2)CCO1 [Compound 402]	> 10 µM
Cn1cnnc1[C@@H](c1cccc(-n2cc3c(C(F)(F)F)cc(CN4CCC5(CCOC5=O)CC4)cn3c2=O)c1)C1CCC1 [Compound 545]	< 0.1 µM
Cn1cnnc1[C@@H](c1cccc(-n2cc3c(C(F)(F)F)cc(CN4CCN(S(C)(=O)=O)CC4)cn3c2=O)c1)C1CCC1 [Compound 572]	< 0.1 µM

Record Cn1cnnc1[C@H](c1cc(F)cc(-n2cc3c(C(F)(F)F)cc(CN4CC5(CC5)C4)cn3c2=O)c1)C1CCC1 (single isomer, unassigned) [Compound 539] / CBL-B (Homo sapiens, UniProt Q13191), IC50 recorded as < 0.1 µM

Result for C[C@H]1CCCN([C@H](C)c2cc(C(F)(F)F)c3cn(-c4cccc(C5(c6nncn6C)CCC5)c4)c(=O)n3c2)C1 [Compound 506_P1] , tested on CBL-B (Homo sapiens, UniProt Q13191), IC50: < 0.1 µM

Entry CO[C@]1(C)C[C@H]([C@@H](c2cccc(-n3cc4c(C(F)(F)F)cc(CN5CCC[C@H](C)C5)cn4c3=O)c2)c2nncn2C)C1 (single isomer, unassigned) [Compound 530] : IC50 on CBL-B (Homo sapiens, UniProt Q13191) = > 10 µM

Item: Cn1cnnc1[C@@H](c1cccc(-n2cc3c(C(F)(F)F)cc(CN4CCCS4(=O)=O)cn3c2=O)c1)C1CCC1 [Compound 541] | System: CBL-B (Homo sapiens, UniProt Q13191) | IC50: < 0.1 µM
